Origin of values: PubChem BioAssay (NCI)

Answer each item with its documented TGI.
tested on: MALME-3M melanoma; assay: NCI tumour cell line growth inhibition, 48 h

With MALME-3M melanoma as the test system, `O=C1OC(c2ccco2)=N/C1=C\c1cccc([N+](=O)[O-])c1` showed TGI of > 100 µM

Entry `CC(=O)N1C/C(=C\c2ccc(N(C)C)cc2)C(=O)/C(=C/c2ccc(N(C)C)cc2)C1` , MALME-3M melanoma data, TGI value: > 100 µM

The measured TGI that `Cc1cc(O)c(C(C)(C)C)cc1Sc1cc(C(C)(C)C)c(O)cc1C` showed for MALME-3M melanoma is 5.71 µM

Short answer on MALME-3M melanoma for `CCOC(=O)C(Cc1cn(S(=O)(=O)c2ccccc2)c2ccccc12)(NC(C)=O)C(=O)OCC` , TGI: > 100 µM

Tested on MALME-3M melanoma, the item `COc1cc2c3c(n(CCNCCCNCCn4c5c(c6cc(OC)c(OC)cc6c4=O)C(=O)c4ccccc4-5)c(=O)c2cc1OC)-c1ccccc1C3=O` showed TGI equal to 6.19 µM

Value sought: TGI, system MALME-3M melanoma, item O=C1CCCC2(c3ccccc3)Nc3ccccc3N12 (stereo unspecified) . Result: > 100 µM

----------
test system: OVCAR-3 ovarian; experiment: NCI tumour cell line growth inhibition, 48 h
Record form. Attribute: TGI. Fill in for each entry.

# TGI of `N#Cc1cccc(NC(=O)c2cc(-c3ccc(F)cc3F)ccc2O)c1` = 11.7 µM

Entry CN1C(=O)c2ccccc2NC(=O)C12O[C@@H]2c1cccc(O)c1 (stereo not given in full) , TGI reported as > 100 µM

Value of measured TGI for the entry COC(=O)C(=O)C(C(=O)C=C(C)C)C(=O)C(=O)Nc1ccc(C)cc1C (stereo not given) : > 100 µM

Per the record, `Nc1nc(-c2cccc(Cl)c2)c(-c2ccc3ncccc3n2)s1` has TGI of > 25 µM

Documented TGI of `O=C(/C(=C/c1cccc([N+](=O)[O-])c1)c1ccccc1)c1ccccc1` : 10.9 µM

What the record says about `O=C1O/C(=C(/Cl)c2cccc3ccccc23)c2ccccc21` : TGI is > 100 µM

Looking up O=C1C(Cl)C(c2cccc(Cl)c2)N1c1ccc(-n2c(=S)[nH]c3ccccc3c2=O)cc1 (stereo not given) , I see its TGI listed as > 100 µM

// recorded TGI for `COC(=O)c1cc(C)c(C)c2c1NC(=O)CNC2=O` : > 100 µM

Short answer for `CSC1=N/C(=C\c2ccccc2)C(=O)N1CN1CCCCC1` : TGI was > 100 µM

Lab note: `CC(=O)N1C/C(=C\c2ccc(N(C)C)cc2)C(=O)/C(=C/c2ccc(N(C)C)cc2)C1` gave TGI of 56.3 µM

Memo: `N#C/C(=C\c1cc2ccccc2c2ccccc12)c1ccccc1` , reported TGI: > 25.6 µM

In plain terms, `CC(C)=CC(=O)C[C@H]1C(=O)O[C@@H]2C[C@H]3C(C)=CC(=O)[C@@H](O)[C@]3(C)[C@H]3[C@@]4(O)OC[C@]32[C@@H]1[C@@H](C)[C@H]4O` has a documented TGI of 0.166 µM

Summary for this molecule, `O=C1C=CC=C/C1=C1\N=C(c2ccccc2OCC(=O)c2ccc(Br)cc2)SS1` : TGI is > 100 µM

Query COC1=CC2(C=CC1=O)c1cc(OC)c(OC)cc1CCN2C(=O)c1ccccc1 (stereo not given) yields TGI of > 100 µM

Value of measured TGI for the entry `Cc1ccc2c3c(c(=O)[nH]c2c1)C1(C(C#N)=C(N)O3)c2cc(Br)ccc2-c2ccc(Br)cc21` : 4.76 µM

Noted for COC(=O)C(NC(=O)c1ccccc1)c1ccco1 (stereo not given) : its TGI reads > 100 µM

Sure, the documented TGI for `Fc1ccc(-c2nn3ncccc3c2-c2ccnc(Nc3ccc4c(c3)OCCO4)n2)cc1` is > 16.2 µM

Item: CCN(CC)CCCC(C)Nc1cnc(C(=O)Nc2cccc3ccc(OC)nc23)cn1 (stereo not given) | TGI: 5.24 µM

Entry COC(=O)C1C(=O)C=CN([C@H](C)c2ccccc2)[C@@H]1Cc1ccc(OC)c(OCc2ccccc2)c1I (stereo not given in full) , TGI reported as 28.2 µM

Entry `O=C(Cc1ccccc1)N/N=C/c1ccccc1O` ; TGI = > 100 µM

COc1cc(/C=C2\CN(C)CC3=C2NC(=S)NC3c2cc(OC)c(OC)c(OC)c2)cc(OC)c1OC (stereo not given) yielded TGI of > 100 µM

molecule `COc1ccccc1N1CCN(CCCN2/C(=C(\O)c3ccccc3)C(=O)c3c(C)cc(C)nc3S2(=O)=O)CC1` , TGI observed: > 100 µM

Data point: `O=C(O)[C@@H]1CCCCN1Cc1cc2cc3c(cc2c2cc(OCc4ccccc4)ccc12)OCO3` ; TGI = 36.2 µM

GET /value?item= `COC(=O)C(=Cc1cc(OC)c(OC)c(OC)c1-c1cc2c(cc1C(C)=O)OCO2)C(=O)OC` &field=TGI returns 56.2 µM

Measured TGI, CCCCCN(CCCCC)CC(O)c1ccc(Cl)c2ccccc12 (stereo not given) : 26.5 µM

Briefly, TGI measured for `c1ccc2c(c1)nc1n2CNC1` : > 100 µM

Lab note: measured TGI of CC12CCC([C@H](C(O)C3CCCCC3)C1=O)C2(C)C (stereo not given in full) was > 100 µM

So for `CO[C@H]1C=C[C@@]23c4cc5c(cc4CO[C@]2(O)CN(C)[C@H]3C1)OCO5` , the logged TGI turned out to be > 100 µM

Note to self: TGI recorded for CC(C)CCCC(=O)CCCCCCC(=O)CCN(O)C(=O)C(N)CO (stereo not given) was 41.6 µM

For this molecule ( `CC(=O)N[C@@H](Cc1ccc(O)cn1)C(=O)NCc1cccc(Cl)c1` ), measured TGI is > 100 µM

Reported TGI for `COc1ccc(-c2nnc(COc3ccc(NC(=O)Nc4ccc(Cl)c(C(F)(F)F)c4)cc3F)o2)cc1` was 10.5 µM

Lookup result for `COc1cc(/C=C2\N=C(c3ccccc3)N(c3nc4c(OC)ccc(OC)c4s3)C2=O)ccc1O` ; measured TGI: > 100 µM

Memo: `COc1ccc(-c2cc(=O)c3ccccc3[nH]2)c(OC)c1` , reported TGI: > 100 µM

Briefly, TGI measured for `COc1ccc(-n2cc(-c3cc(OC)c(OC)c(OC)c3)[nH]c2=O)cc1Cl` : > 100 µM

Notebook: `Clc1ccc(-c2c(C3=NCCCN3)nnn2-c2ccc(Cl)cc2)cc1` , TGI read as > 100 µM

Form field TGI, entry `Cc1ccc(C)c(COCCOCn2ccc(N)nc2=O)c1` : > 100 µM

Per the records, this molecule ( `O=c1oc2cc(O)ccc2c(O)c1C(c1ccccc1F)c1c(O)c2ccc(O)cc2oc1=O` ) has TGI equal to > 100 µM

response.value for `O=C1OC(c2ccco2)=N/C1=C\c1cccc([N+](=O)[O-])c1` (field: TGI) = > 100 µM

Briefly, TGI measured for Cc1[nH]c2ccccc2c1C1Cc2ccccc2N1C(=O)/C(Cl)=C/c1ccccc1 (stereo not given) : > 100 µM

So, O=C(Nc1ccc(Cl)cc1Cl)C(=O)C(C(=O)c1ccncc1)C1OC(=O)c2ccccc21 (stereo not given) ? Its TGI was > 100 µM
